Measured Ki accompanies every entry in the list below.
- systemName: GCN2 kinase (Homo sapiens)
- Sequence (Q9P2K8 whole entry): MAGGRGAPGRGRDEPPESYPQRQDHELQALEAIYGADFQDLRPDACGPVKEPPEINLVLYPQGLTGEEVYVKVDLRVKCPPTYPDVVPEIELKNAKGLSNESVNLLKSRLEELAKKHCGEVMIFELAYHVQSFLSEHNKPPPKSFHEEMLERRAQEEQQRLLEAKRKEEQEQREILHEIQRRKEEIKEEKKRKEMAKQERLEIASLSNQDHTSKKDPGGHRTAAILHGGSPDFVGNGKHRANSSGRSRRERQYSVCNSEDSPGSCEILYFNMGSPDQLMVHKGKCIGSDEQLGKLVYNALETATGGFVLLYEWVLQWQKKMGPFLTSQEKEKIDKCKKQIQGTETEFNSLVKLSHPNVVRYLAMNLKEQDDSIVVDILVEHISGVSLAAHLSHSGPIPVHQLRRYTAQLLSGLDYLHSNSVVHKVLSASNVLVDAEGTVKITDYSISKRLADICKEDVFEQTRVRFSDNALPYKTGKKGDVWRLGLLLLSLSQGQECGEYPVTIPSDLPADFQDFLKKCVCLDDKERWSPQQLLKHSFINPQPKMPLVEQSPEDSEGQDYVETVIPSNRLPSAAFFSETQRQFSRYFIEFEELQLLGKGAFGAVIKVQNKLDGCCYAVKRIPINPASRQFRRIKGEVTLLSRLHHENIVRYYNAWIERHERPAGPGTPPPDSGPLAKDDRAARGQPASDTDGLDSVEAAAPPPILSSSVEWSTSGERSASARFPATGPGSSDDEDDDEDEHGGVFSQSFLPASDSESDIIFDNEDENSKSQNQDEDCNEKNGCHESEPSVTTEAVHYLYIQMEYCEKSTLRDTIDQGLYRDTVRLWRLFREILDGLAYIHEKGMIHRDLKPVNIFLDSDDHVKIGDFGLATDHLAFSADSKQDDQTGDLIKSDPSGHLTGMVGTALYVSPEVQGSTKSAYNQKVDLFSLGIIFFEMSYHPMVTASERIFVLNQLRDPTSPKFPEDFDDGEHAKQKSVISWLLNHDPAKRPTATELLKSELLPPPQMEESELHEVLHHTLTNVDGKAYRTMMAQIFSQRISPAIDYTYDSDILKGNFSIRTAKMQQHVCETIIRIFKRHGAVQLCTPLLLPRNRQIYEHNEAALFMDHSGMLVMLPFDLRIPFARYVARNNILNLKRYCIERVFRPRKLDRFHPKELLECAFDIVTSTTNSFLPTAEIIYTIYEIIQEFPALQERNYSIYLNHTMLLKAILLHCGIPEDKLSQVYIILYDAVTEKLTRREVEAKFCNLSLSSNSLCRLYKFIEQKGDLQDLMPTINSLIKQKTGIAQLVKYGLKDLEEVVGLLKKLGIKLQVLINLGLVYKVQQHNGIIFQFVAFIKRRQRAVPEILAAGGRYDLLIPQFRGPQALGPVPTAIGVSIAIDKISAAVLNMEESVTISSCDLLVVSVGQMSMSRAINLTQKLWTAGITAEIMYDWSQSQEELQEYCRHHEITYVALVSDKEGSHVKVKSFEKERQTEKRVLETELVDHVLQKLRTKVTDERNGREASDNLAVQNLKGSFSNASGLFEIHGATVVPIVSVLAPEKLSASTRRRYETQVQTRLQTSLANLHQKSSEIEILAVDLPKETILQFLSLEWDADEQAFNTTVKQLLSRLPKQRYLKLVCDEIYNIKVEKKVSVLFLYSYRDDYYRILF
- testDetails: GCN2 enzyme inhibition assay (Transcreener ADP2 fluorescence polarization)
- Format: biochemical
- statedConditions: compounds of Formula II; 280 μM ATP, 4 nM GCN2 kinase

>  <molecule>
FC(F)c1ccc2ncc(-c3cc(N4CCCC(Cn5cncn5)C4)ncn3)n2n1 (centres unmarked) [II-339]

>  <Ki>
0.01 to 1 µM

$$$$
>  <molecule>
CC1C(CO)OCCN1c1cc(-c2cnc3ccc(C(F)F)nn23)ncn1 (single isomer, unassigned) [II-413]

>  <Ki>
> 1 µM

$$$$
>  <molecule>
CC1C(CO)CCCN1c1cc(-c2cnc3ccc(C(F)F)nn23)ncn1 (centres unmarked) [II-554]

>  <Ki>
0.01 to 1 µM

$$$$
>  <molecule>
CS(=O)(=O)NOC1CCCN(c2cc(-c3cnc4ccc(C(F)F)nn34)ccn2)C1 (centres unmarked) [II-124]

>  <Ki>
< 0.01 µM

$$$$
>  <molecule>
CCC1CC(N=S(C)(C)=O)CN(c2cc(-c3cnc4ccc(C(F)F)nn34)ncn2)C1 (single isomer, unassigned) [II-650]

>  <Ki>
< 0.01 µM

$$$$
>  <molecule>
CS(=O)(=O)N1CC2(CN(c3cc(-c4cnc5ccc(C(F)F)nn45)ccn3)CCO2)C1 [II-126]

>  <Ki>
0.01 to 1 µM

$$$$
>  <molecule>
CNc1cc(-c2cnc3ccc(C(F)F)nn23)cc(N2CC(C)C(F)(F)C(CNS(C)(=O)=O)C2)n1 (centres unmarked) [II-64]

>  <Ki>
< 0.01 µM

$$$$

Next, consider the following molecule.
Item: O=C(O)[C@@H]1CCCN(c2cc(-c3cnc4ccc(C(F)F)nn34)ncn2)C1 [II-508] | Ki: 0.01 to 1 µM
